Each entry below lists one item and its recorded pIC50 value.
biological target: Lyn (Homo sapiens, UniProt P07948)
Sequence (P07948 whole entry, species assumed): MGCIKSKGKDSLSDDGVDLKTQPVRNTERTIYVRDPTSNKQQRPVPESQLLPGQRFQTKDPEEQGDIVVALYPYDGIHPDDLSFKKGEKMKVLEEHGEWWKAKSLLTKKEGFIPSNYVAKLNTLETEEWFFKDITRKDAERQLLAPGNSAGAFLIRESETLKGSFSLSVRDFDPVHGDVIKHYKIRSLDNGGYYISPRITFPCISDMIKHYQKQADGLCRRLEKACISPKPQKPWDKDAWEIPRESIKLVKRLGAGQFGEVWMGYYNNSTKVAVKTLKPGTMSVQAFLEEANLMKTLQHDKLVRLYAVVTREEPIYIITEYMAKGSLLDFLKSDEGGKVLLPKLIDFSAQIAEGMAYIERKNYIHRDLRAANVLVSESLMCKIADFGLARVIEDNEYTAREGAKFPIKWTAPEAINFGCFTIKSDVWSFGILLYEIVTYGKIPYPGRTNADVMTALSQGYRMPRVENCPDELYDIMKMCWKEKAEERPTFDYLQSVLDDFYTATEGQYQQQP
pIC50: −log10 of the molar value.

COc1cc(Nc2ncnc(-n3c(Nc4ccc5cn[nH]c5c4)nc4ccccc43)n2)cc(OC)c1OC; 5.33 to 6.11
COc1cc(Nc2ncnc(N3CCc4ccccc43)n2)cc(OC)c1OC; 5.20 to 5.98
OCc1ccc(Nc2ncnc(Nc3cc(-c4ccco4)n[nH]3)n2)cc1; 5.16 to 5.94

Form field, pIC50 with Lyn (Homo sapiens, UniProt P07948), item COc1cc(Nc2ncnc(-n3cc(C)c4ccccc43)n2)cc(OC)c1OC : < 4.94

Values compiled from patent US7074789B2.
